Tested on: P388
measurementNotes: Optimal dose following i.p. administration on days 1,5 and 9 after inoculation of 10e6 P388 leukemia cells to mice.
Assay type: functional, Mus musculus
Reported OD values follow for various compounds
measure: OD (mg/kg/day)

                                  structure  measure  experimentalresult
0  CC(=O)Nc1ccc(-c2nc3c(C(=O)NCCN(C)C)cccc3c3ccccc23)cc1       OD                  30
1  CN(C)CCNC(=O)c1cccc2c1nc(-c1ccc(Br)cc1)c1ccccc12       OD                  65
2  CN(C)CCNC(=O)c1cccc2c1nc(-c1ccc(F)cc1)c1ccccc12.Cl.Cl       OD                  20
3   CN(C)CCNC(=O)c1cccc2c1ncc1ccccc12.Cl.Cl       OD                 100
4  CN(C)CCNC(=O)c1cccc2c1nc(-c1ccc(NS(C)(=O)=O)cc1)c1ccccc12.Cl.Cl       OD                  30
5  CN(C)CCNC(=O)c1cccc2c1nc(-c1ccccn1)c1ccccc12.Cl       OD                  65

====

Form field: OD (one value per entry).
Test system: P388
measurementNotes: Optimal dose following i.p. administration on days 1,5 and 9 after inoculation of 10e6 P388 leukemia cells to mice.
Assay type: functional, Mus musculus
measure: OD (mg/kg/day)

                                  structure  experimentalresult
0  CN(C)CCNC(=O)c1cccc2c1nc(-c1cccc(Cl)c1)c1ccccc12.Cl.Cl                  65
1  CN(C)CCNC(=O)c1cccc2c1nc(-c1ccc(Cl)cc1)c1ccccc12                  45
2  CN(C)CCNC(=O)c1cccc2c1nc(-c1cccnc1)c1ccccc12.Cl.Cl.Cl                  45
3  CN(C)CCCNC(=O)c1cccc2c1ncc1ccccc12.Cl.Cl                 100
4  Br.Br.CN(C)CCNC(=O)c1cccc2c1nc(-c1ccc(O)cc1)c1ccccc12.Cl.Cl                  65
5  CN(C)CCNC(=O)c1cccc2c1nc(-c1ccncc1)c1ccccc12.Cl.Cl                 100
6  CN(C)CCNC(=O)c1cccc2c1nc(-c1ccc(I)cc1)c1ccccc12.Cl.Cl                  65
7  CN(C)CCCNC(=O)c1cccc2c1nc(-c1ccccc1)c1ccccc12.Cl.Cl                  45
8  CN(C)CCNC(=O)c1cccc2c1nc(-c1ccccc1Cl)c1ccccc12.Cl                  45
9  CN(C)CCNC(=O)c1cccc2c1nc(-c1ccccc1)c1ccccc12                  45
